- assay.details: viability loss with induced miR-34 in A549 – imaging, A549 dox-inducible miR-34, nuclei and caspase counts, primary screen (AID 1347080); note: test concentration not given here
- conditions.used: A549 miR-34 inducible, Hoechst nuclei count, 48 h; active compounds read low; cell number ratio, induced over uninduced
Activity calls are given as the source filed them.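 Rule for the calls: active = compounds whose cell count with miR-34 switched on is under 0.7 times the count with it off; inactive = the rest.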
metric: fold change

stdin: State its fold change for this compound: CNCC(O)c1ccc(OC(=O)C(C)(C)C)c(OC(=O)C(C)(C)C)c1 (stereo not drawn)
stdout: 0.893 (inactive)

stdin: State its fold change for this compound: O=C1CCNC(=O)N1
stdout: 0.882 (inactive)

stdin: State its fold change for this compound: CC[C@@H](C)[C@H]1O[C@]2(CC[C@@H]1C)C[C@@H]1C[C@@H](C/C=C(\C)[C@@H](O[C@H]3C[C@H](OC)[C@@H](O[C@H]4C[C@H](OC)[C@@H](O)[C@H](C)O4)[C@H](C)O3)[C@@H](C)/C=C/C=C3\CO[C@@H]4[C@H](O)C(C)=C[C@@H](C(=O)O1)[C@]34O)O2
stdout: 0.888 (inactive)
